Collected IC50 values appear next to each entry.
assay: Cytotoxicity against mouse NIH/3T3 cells after 72 hrs by MTT assay; format: cell-based; details: NIH3T3, 72 h
Response body: numeric value in µM, unit text excluded.

{"columns": ["smilesNotation", "uom", "IC50"],
 "data": [
  ["CCCCCCCCCCCCCC[N+](C)(CCCCCCCCCCCCCC)CCNC(=O)[C@@]1(O)CC[C@H]2[C@@H]3CCC4=CC(=O)CC[C@]4(C)[C@H]3[C@@H](O)C[C@@]21C", "µM", 4.85],
  ["CCCCCCCC[N+](C)(CCCCCCCC)CCNC(=O)[C@@]1(O)CC[C@H]2[C@@H]3CCC4=CC(=O)CC[C@]4(C)[C@H]3[C@@H](O)C[C@@]21C", "µM", 7.4],
  ["CCCCCCCCCCCCCCCC[N+](C)(CCCCCCCCCCCCCCCC)CCNC(=O)[C@@]1(O)CC[C@H]2[C@@H]3CCC4=CC(=O)CC[C@]4(C)[C@H]3[C@@H](O)C[C@@]21C.[Cl-]", "µM", 20],
  ["CCCCCCCCCCCC[N+](C)(CCCCCCCCCCCC)CCNC(=O)[C@@]1(O)CC[C@H]2[C@@H]3CCC4=CC(=O)CC[C@]4(C)[C@H]3[C@@H](O)C[C@@]21C", "µM", 3.36]
]}

API: the following record is the query input.
Can you share its IC50? I mean this compound: CCCCCCCCCC[N+](C)(CCCCCCCCCC)CCNC(=O)[C@@]1(O)CC[C@H]2[C@@H]3CCC4=CC(=O)CC[C@]4(C)[C@H]3[C@@H](O)C[C@@]21C
3.77

* * *

test system: A549; assay: Cytotoxicity against human A549 cells after 72 hrs by MTT assay; assay type: functional, cell-based; settings: A549, 72 h
Collected pIC50 values appear next to each entry.
The scale used: pIC50 is minus the common logarithm of the concentration in molar units.

{"columns": ["smilesNotation", "assayedSystem", "pIC50"],
 "data": [
  ["CCCCCCCCCC[N+](C)(CCCCCCCCCC)CCNC(=O)[C@@]1(O)CC[C@H]2[C@@H]3CCC4=CC(=O)CC[C@]4(C)[C@H]3[C@@H](O)C[C@@]21C", "A549", 4.90],
  ["CCCCCCCCCCCCCC[N+](C)(CCCCCCCCCCCCCC)CCNC(=O)[C@@]1(O)CC[C@H]2[C@@H]3CCC4=CC(=O)CC[C@]4(C)[C@H]3[C@@H](O)C[C@@]21C", "A549", 5.48],
  ["CCCCCCCCCCCCCCCC[N+](C)(CCCCCCCCCCCCCCCC)CCNC(=O)[C@@]1(O)CC[C@H]2[C@@H]3CCC4=CC(=O)CC[C@]4(C)[C@H]3[C@@H](O)C[C@@]21C.[Cl-]", "A549", 5.60],
  ["CCCCCCCCCCCC[N+](C)(CCCCCCCCCCCC)CCNC(=O)[C@@]1(O)CC[C@H]2[C@@H]3CCC4=CC(=O)CC[C@]4(C)[C@H]3[C@@H](O)C[C@@]21C", "A549", 5.47]
]}

API: the following record is the query input.
Can you share its pIC50? I mean this compound: CCCCCCCC[N+](C)(CCCCCCCC)CCNC(=O)[C@@]1(O)CC[C@H]2[C@@H]3CCC4=CC(=O)CC[C@]4(C)[C@H]3[C@@H](O)C[C@@]21C
4.75

Ref: ChEMBL document CHEMBL3751695
